biological target: UniProt O43570; test: stopped flow carbon dioxide hydrase assay, hCA XII; conditions: hCA XII over hCA II
Sequence (O43570 25-354): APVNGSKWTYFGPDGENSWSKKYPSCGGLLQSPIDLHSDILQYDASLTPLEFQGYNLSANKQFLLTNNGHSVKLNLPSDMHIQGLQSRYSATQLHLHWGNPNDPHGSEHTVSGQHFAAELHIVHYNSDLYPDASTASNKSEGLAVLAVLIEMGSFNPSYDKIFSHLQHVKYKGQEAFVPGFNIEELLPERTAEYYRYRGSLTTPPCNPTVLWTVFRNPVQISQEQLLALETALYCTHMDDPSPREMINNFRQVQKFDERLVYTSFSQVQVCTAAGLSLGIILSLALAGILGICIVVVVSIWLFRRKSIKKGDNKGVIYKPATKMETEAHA
observable: Selectivity ratio II/XII

Some entries whose results are on file:
{"compound": "Cc1ccc(Nc2ccnc3ccc(Cl)cc23)cc1S(N)(=O)=O [11g]", "result": 25.4}
{"compound": "NS(=O)(=O)c1cccc(Nc2ccnc3cc(C(F)(F)F)cc(C(F)(F)F)c23)c1 [11d]", "result": 6.5}
{"compound": "NS(=O)(=O)c1cccc(Nc2ccnc3ccc(Cl)cc23)c1 [11c]", "result": 2.8}
{"compound": "Cc1ccc2nccc(Nc3ccccc3S(N)(=O)=O)c2c1", "result": 3.4}
{"compound": "Cc1ccc2nccc(Nc3cccc(S(N)(=O)=O)c3)c2c1 [11a]", "result": 6.4}

What is its Selectivity ratio II/XII for UniProt O43570? Entry: COc1ccc2nccc(Nc3cccc(S(N)(=O)=O)c3)c2c1 [11b]
5.0

For UniProt O43570, provide Selectivity ratio II/XII of Cc1ccc2nccc(Nc3ccc(C)c(S(N)(=O)=O)c3)c2c1 [11e] please.
17.1

Lab note: need Selectivity ratio II/XII for COc1ccc2nccc(Nc3ccccc3S(N)(=O)=O)c2c1 on UniProt O43570, anyone have it?
1.2

Param readout= Selectivity ratio II/XII; system= UniProt O43570; entry= NS(=O)(=O)c1ccc(Nc2ccnc3ccc(Cl)cc23)cc1 [13c] ; returns value.
0.8

Item: Cc1ccc2nccc(Nc3ccc(S(N)(=O)=O)cc3)c2c1 [13a] Test system: UniProt O43570 Read-out: Selectivity ratio II/XII Value: ?
3.7

Observed Selectivity ratio II/XII on UniProt O43570 for NS(=O)(=O)c1ccccc1Nc1ccnc2ccc(Cl)cc12 , please.
2.3

###

List of pKi tested on hCA II (Homo sapiens).
Conceptually, pKi converts a concentration in mol/L into minus its log10.

{"compound": "NS(=O)(=O)c1cccc(Nc2ccnc3ccc(Cl)cc23)c1 [11c]", "numeric value": 6.81}
{"compound": "NS(=O)(=O)c1ccc(Nc2ccnc3ccc(Cl)cc23)cc1 [13c]", "numeric value": 8.14}
{"compound": "Cc1ccc2nccc(Nc3ccc(S(N)(=O)=O)cc3)c2c1 [13a]", "numeric value": 7.44}

What value of measured pKi is listed for COc1ccc2nccc(Nc3ccc(C)c(S(N)(=O)=O)c3)c2c1 [11f] ?
6.00

Which pKi reading was recorded for the compound Cc1ccc2nccc(Nc3cccc(S(N)(=O)=O)c3)c2c1 [11a] ?
6.58

Please give the measured pKi for this compound: COc1ccc2nccc(Nc3ccc(S(N)(=O)=O)cc3)c2c1 [13b]
7.23

Fill in: pKi of Cc1ccc(Nc2ccnc3ccc(Cl)cc23)cc1S(N)(=O)=O [11g] is ___
5.63

// returns reported pKi for input NS(=O)(=O)c1cccc(Nc2ccnc3cc(C(F)(F)F)cc(C(F)(F)F)c23)c1 [11d]
6.66

###

Readings of pKi for the listed molecules
target: hCA IX (Homo sapiens); test: stopped flow carbon dioxide hydrase assay, hCA IX
Remember, pKi is on a log scale: it is -log10 of the molar concentration.

Completed entries (count: 3):
{"molecule": "Cc1ccc2nccc(Nc3ccccc3S(N)(=O)=O)c2c1 [9a]", "pKi": 7.44}
{"molecule": "COc1ccc2nccc(Nc3ccc(S(N)(=O)=O)cc3)c2c1 [13b]", "pKi": 8.26}
{"molecule": "Cc1ccc2nccc(Nc3ccc(C)c(S(N)(=O)=O)c3)c2c1 [11e]", "pKi": 6.99}

So what's the measured pKi for this one? COc1ccc2nccc(Nc3cccc(S(N)(=O)=O)c3)c2c1 [11b]
7.06

So what does the record say about pKi for NS(=O)(=O)c1cccc(Nc2ccnc3cc(C(F)(F)F)cc(C(F)(F)F)c23)c1 [11d] ?
7.28

State the recorded pKi for this entry: Cc1ccc2nccc(Nc3cccc(S(N)(=O)=O)c3)c2c1 [11a]
7.15

What value of pKi has been reported for the following molecule? Cc1ccc(Nc2ccnc3ccc(Cl)cc23)cc1S(N)(=O)=O [11g]
6.93

Reference for the values: paper PMC8541628
